Listed next: entries and their corresponding half-life.
Test: Human hepatocyte metabolic stability
Format: in vitro ADME
Details: human hepatocytes; read-out: human hepatocytes T1/2
Write the answer as a number in h, unit excluded.

Sample records with half-life:
C#CC(=O)N1[C@@H](CC2CC2)Cc2c([nH]c3ccccc23)[C@@H]1c1ccc(NC23CC4CC(CC(C4)C2)C3)cc1	4.5
C#CC(=O)N1[C@@H](CCCC)Cc2c([nH]c3c(F)cc(F)cc23)[C@@H]1c1ccccn1	0.467

In: Value lookup for half-life; key = C#CC(=O)N1[C@@H](CCCC)Cc2c([nH]c3c(F)cc(F)cc23)[C@@H]1c1ccc(NC(=O)OCCCCC)cc1
Out: 4.08

In: Value lookup for half-life; key = O=C(CCl)N1[C@@H](CC2CC2)Cc2c([nH]c3ccccc23)[C@@H]1c1ccc(NC23CC4CC(CC(C4)C2)C3)cc1
Out: 41.1

###

Listed next: entries and their corresponding rat hepatocytes % met @ 180 min.
Test: Rat hepatocyte metabolic stability
Type: in vitro ADME
Conditions: 180 min

Sample records with rat hepatocytes % met @ 180 min:
O=C(CCl)N1[C@@H](CC2CC2)Cc2c([nH]c3ccccc23)[C@@H]1c1ccc(NC23CC4CC(CC(C4)C2)C3)cc1	72%
C#CC(=O)N1[C@@H](CCCC)Cc2c([nH]c3c(F)cc(F)cc23)[C@@H]1c1ccccn1	100%

In: Value lookup for rat hepatocytes % met @ 180 min; key = C#CC(=O)N1[C@@H](CC2CC2)Cc2c([nH]c3ccccc23)[C@@H]1c1ccc(NC23CC4CC(CC(C4)C2)C3)cc1
Out: 74%

In: Value lookup for rat hepatocytes % met @ 180 min; key = C#CC(=O)N1[C@@H](CCCC)Cc2c([nH]c3c(F)cc(F)cc23)[C@@H]1c1ccc(NC(=O)OCCCCC)cc1
Out: 57%

###

Test system: SJSA-1
Assay: Cell proliferation (Alamar Blue) assay, SJSA-1
Assay type: cell-based, human
Details: Homo sapiens, SJSA-1, 24 h, Table B-3, head prints SJSB-1, 24 h, read-out: IC50 (μM) SJSB-1
Listed next: entries and their corresponding log10(IC50).
Field: value | Transform: log10 | Quantity: IC50 | Unit: µM

C#CC(=O)N1[C@@H](CCCC)Cc2c(n(C)c3ccccc23)[C@@H]1c1ccc(NC23CC4CC(CC(C4)C2)C3)cc1	-1.18

In: Value lookup for log10(IC50); key = C#CC(=O)N1[C@@H](CCCC)Cc2c([nH]c3c(F)cc(F)cc23)[C@@H]1c1ccc(N2CCC2)c(C#N)c1
Out: -0.15

In: Value lookup for log10(IC50); key = C#CC(=O)N1[C@@H](CCCC)Cc2c([nH]c3c(F)cc(F)cc23)[C@@H]1c1ccc(N2CCN(C)CC2)c(C#N)c1
Out: -0.82

In: Value lookup for log10(IC50); key = C#CC(=O)N1[C@@H](CCCC)Cc2c([nH]c3ccccc23)[C@@H]1c1ccc(NC2CCC2)cc1
Out: -1.82

In: Value lookup for log10(IC50); key = C#CC(=O)N1[C@@H](CCCC)Cc2c([nH]c3c(F)cc(F)cc23)[C@@H]1c1ccc(N2CCN(C)CC2)cc1
Out: -1.20

In: Value lookup for log10(IC50); key = C#CC(=O)N1[C@@H](CCCC)Cc2c([nH]c3ccccc23)[C@@H]1CCCCCC
Out: -1.11

In: Value lookup for log10(IC50); key = C#CC(=O)N1[C@@H](CCCC)Cc2c([nH]c3ccccc23)[C@@H]1c1ccc(-c2nc(C)no2)cc1
Out: -1.85

In: Value lookup for log10(IC50); key = CCCC[C@H]1Cc2c([nH]c3ccccc23)[C@H](c2ccc(NC(=O)c3ccncc3)cc2)N1C(=O)CCl
Out: -1.72

In: Value lookup for log10(IC50); key = C#CC(=O)N1[C@@H](CCCC)Cc2c([nH]c3c(F)cc(F)cc23)[C@@H]1c1ccc(N2CCN(C)CC2)c(F)c1
Out: -1.29

In: Value lookup for log10(IC50); key = COC(=O)[C@H]1Cc2c([nH]c3ccccc23)[C@H](c2ccc(N(C(=O)CCCC[C@@H]3SC[C@@H]4NC(=O)N[C@@H]43)C3CC3)cc2)N1C(=O)CCl
Out: 0.28

In: Value lookup for log10(IC50); key = C#CC(=O)N1C(c2ccn(C34CC5CC(CC(C5)C3)C4)n2)c2[nH]c3ccccc3c2C[C@@H]1CCCC (stereo partly shown)
Out: -1.23

In: Value lookup for log10(IC50); key = CCCCCOC(=O)Nc1ccc([C@H]2c3[nH]c4c(F)cc(F)cc4c3C[C@H](CCCC)N2C(=O)CCl)cc1
Out: -2.70

In: Value lookup for log10(IC50); key = C#CC(=O)N1[C@@H](CCCC)Cc2c([nH]c3c(F)cc(F)cc23)[C@@H]1c1ccc(NC(=O)OCCCC(=O)O)cc1
Out: -0.62
